assay: protein stability index of a GFP-peptide fusion (GPS, HEK-293T) (PSI 1-6); higher = more stable; settings: treatment: DMSO; c terminus: a fixed tail appended;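 note: 24-mer peptide tiles fused after GFP, lentivirally expressed, FACS-sorted into six equal bins by GFP/DsRed ratio, decoded by Illumina sequencing, PSI is the read-weighted mean bin number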
measured.parameter: protein stability index

Report protein stability index, nothing else, for this sequence: DLLTFVQNLCKGLSQPTTNLVAGC [NEUROD6]
3

Report protein stability index, nothing else, for this sequence: CRNGSSIQIAFEEVPQLPPRASIS [C2CD2L]
3.03

Report protein stability index, nothing else, for this sequence: PGGETEALTRLERHLERKAWVANF [CRY1]
3.04

----------
test: protein stability index of a GFP-peptide fusion (GPS, HEK-293T) (PSI 1-6); higher = more stable; settings: treatment: DMSO; c terminus: a fixed tail appended
measured.parameter: protein stability index
Just the number.

Report protein stability index, nothing else, for this sequence: KLTLENFYSNLILQHEERETRQKK [STK38L]
3.24

Report protein stability index, nothing else, for this sequence: AGGYVDVVKVLLESGASIEDHNEN [ANKRD17]
3.08

Report protein stability index, nothing else, for this sequence: HAIYSLSYPMRRSYRYKLLNWAYQ [STEAP1]
2.33

Report protein stability index, nothing else, for this sequence: AELFSYVLQDRAAKGSLGTQIGFA [FEM1A]
2.16

Report protein stability index, nothing else, for this sequence: PGAPRGNPPKASAAPDCTPSLEAG [MYCL]
5.28

Report protein stability index, nothing else, for this sequence: LANRLCLPHLVALTEQYTVTGLME [RHOBTB2]
2.57

Report protein stability index, nothing else, for this sequence: KEEAQAEIEQYRLQREKEFKAKEA [ATP6V1G1]
5.5

Report protein stability index, nothing else, for this sequence: EMREQYEAMAEKNRRDVEAWFFSK [KRT15]
3.85

Report protein stability index, nothing else, for this sequence: PIETLIRDMLLSGSSFNWPYMAIQ [NR2F2]
3.34

Report protein stability index, nothing else, for this sequence: TKWVDYSNKYGFGYQLSDHTVGVL [PLK2]
2.19

Report protein stability index, nothing else, for this sequence: SKTFLCIGSSVMAASLVTMGIVNL [SLC2A12]
3.19

Report protein stability index, nothing else, for this sequence: SLRLCDMRAAALCDKHSKLFEEPE [PPP2R2C]
4.19

Report protein stability index, nothing else, for this sequence: ISEEGHHYLIFDLVTGGELFEDIV [CAMK2A]
2.47

Report protein stability index, nothing else, for this sequence: STDDFFFREDGAYEFNPDFLEEAH [N4BP2L1]
4.99

Report protein stability index, nothing else, for this sequence: LCREEPVVQGPDGRLELKPLLLRL [FANCE]
2.19

Report protein stability index, nothing else, for this sequence: PVDPDSQADTVHSNPELDVLLLGS [DNAAF3]
4.95

Report protein stability index, nothing else, for this sequence: NLQSLKTPTLKVFMHENLYFTNRK [DCAF4]
2.73

Report protein stability index, nothing else, for this sequence: DGKLSFEEFKAYFADGVLSGEELH [NECAB1]
4.23

Report protein stability index, nothing else, for this sequence: SEDTLTIHGLPTEGYQALYHAVVE [C22orf31]
3.19

Report protein stability index, nothing else, for this sequence: TSEGTLELQQRNPKAERLRWSPAQ [ZNF232]
4.27

Report protein stability index, nothing else, for this sequence: AVVKPGNTKEKIAFFASHQCSNRI [FBXO34]
3.81

Report protein stability index, nothing else, for this sequence: NLRRHVPDLESGSESGADTISVNQ [DLC1]
5.29

Report protein stability index, nothing else, for this sequence: LTFLTKQEILLAHRRFCELLPQEQ [CIB1]
2.4

Report protein stability index, nothing else, for this sequence: AVIDSEKDMNFLKRYAGREEHWVG [CD69]
2.72

Report protein stability index, nothing else, for this sequence: ALRQSVEADINGLRRVLDELTLSK [KRT13]
3.08

Report protein stability index, nothing else, for this sequence: RKVAGMAKPNMIISVNGDVITIKS [FABP4]
2.37

Report protein stability index, nothing else, for this sequence: KGAVPRSIPNLAEVKKKGKMKKLG [HDAC6]
4.51

Report protein stability index, nothing else, for this sequence: TREAVTEILGIEPDREKGFHLDVE [TSN]
4.62

Report protein stability index, nothing else, for this sequence: SYSRGYSYHDGYGEALGRDHSEHL [RBMY1A1]
3.5

Report protein stability index, nothing else, for this sequence: GIGDMAFEGDMGAAGGDGELGSPL [PSD2]
5.37

Report protein stability index, nothing else, for this sequence: CGKCFSQNTHLTRHQRTHTGEKPY [ZNF263]
2.94

Report protein stability index, nothing else, for this sequence: YLLHGLECVVAMHQAQLISKIPHI [EIF5]
3.37

Report protein stability index, nothing else, for this sequence: APFLSQADDPDDGPVPGTPGLPGS [SPNS1]
5.55

Report protein stability index, nothing else, for this sequence: KEEKCQGKGDDSETDKNNCSNAKA [KCNA4]
5.49

Report protein stability index, nothing else, for this sequence: GEFPSPVSISIISSTSGGSGYGFR [KRT71]
2.65

Report protein stability index, nothing else, for this sequence: WHPKPYCQALPYGPGYWMCCHRSQ [FBXO34]
2.32

Report protein stability index, nothing else, for this sequence: IHGFPWWPARVLDISLGQKEDGEP [PWWP2B]
3.05

Report protein stability index, nothing else, for this sequence: AIIGWLLTTCTSNVAASNAKLALF [INTS3]
3.13

Report protein stability index, nothing else, for this sequence: WKVRAEKEACQREKELPAAVHPFH [ZBED2]
3.9

Report protein stability index, nothing else, for this sequence: PGSFWGLCQVAQEALASAGASCCG [VENTX]
2.41

Report protein stability index, nothing else, for this sequence: VQIKTWFQNRRMKHKRQMQDPQLH [VENTX]
2.55
